- tested_on: T1, FZD5 CRD (Homo sapiens, UniProt Q13467)
- T1 construct: K29-T156; GPI anchor signal (C); expressed in transfected cells; host or cells: CHO cells, lentiviral pLenti-puro
- T1 sequence (Q13467 29-156): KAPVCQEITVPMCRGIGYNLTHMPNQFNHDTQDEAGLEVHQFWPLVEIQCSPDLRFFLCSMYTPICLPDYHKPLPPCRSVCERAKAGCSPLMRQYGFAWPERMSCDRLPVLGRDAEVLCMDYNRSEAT
- test_description: Immunofluorescence of anti-FZD5 Fab binding to CHO cells overexpressing Frizzled CRD
- Design: key: −: no binding; +: very weak binder; ++: weak binder; +++: good binder; ++++: very good binder
assay_readout: Immunofluorescence binding, Frizzled CRD overexpressed on CHO cells: FZD5

molecule: Fab-2915: anti-FZD5 Fab with antibody variable region Fv-2915; CDR SEQ ID NOs: 35, 36, 54, 93, 130, 166 (antibody, V domains shown) VH: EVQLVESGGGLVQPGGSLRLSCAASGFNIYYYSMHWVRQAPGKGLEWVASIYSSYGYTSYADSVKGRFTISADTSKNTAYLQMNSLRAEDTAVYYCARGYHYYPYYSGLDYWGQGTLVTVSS VL: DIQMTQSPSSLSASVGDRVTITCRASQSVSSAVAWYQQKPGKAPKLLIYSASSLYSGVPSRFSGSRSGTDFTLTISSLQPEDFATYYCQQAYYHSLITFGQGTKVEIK
result: +++
